Origin of values: patent US20200247800A1

- Tgt: human NOX4 (Homo sapiens, UniProt Q9NPH5)
- Construct: expressed in transfected cells; membrane fraction used
- Sequence (Q9NPH5 whole entry): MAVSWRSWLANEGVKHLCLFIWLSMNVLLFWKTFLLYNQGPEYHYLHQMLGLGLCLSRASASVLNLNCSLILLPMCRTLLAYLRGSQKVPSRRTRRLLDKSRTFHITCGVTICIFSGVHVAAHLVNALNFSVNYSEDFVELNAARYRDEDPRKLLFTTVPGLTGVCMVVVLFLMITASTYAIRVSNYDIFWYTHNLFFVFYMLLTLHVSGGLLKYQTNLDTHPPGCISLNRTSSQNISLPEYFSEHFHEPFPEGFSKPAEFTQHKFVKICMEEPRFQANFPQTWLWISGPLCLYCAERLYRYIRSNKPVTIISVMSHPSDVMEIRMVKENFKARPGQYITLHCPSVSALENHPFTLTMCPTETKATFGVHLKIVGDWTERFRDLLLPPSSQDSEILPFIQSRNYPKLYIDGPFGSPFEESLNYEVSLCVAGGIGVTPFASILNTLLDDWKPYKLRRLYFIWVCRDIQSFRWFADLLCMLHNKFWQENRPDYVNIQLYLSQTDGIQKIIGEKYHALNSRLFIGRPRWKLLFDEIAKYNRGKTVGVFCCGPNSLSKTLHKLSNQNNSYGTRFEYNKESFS
- Sequence (P13498 whole entry partner): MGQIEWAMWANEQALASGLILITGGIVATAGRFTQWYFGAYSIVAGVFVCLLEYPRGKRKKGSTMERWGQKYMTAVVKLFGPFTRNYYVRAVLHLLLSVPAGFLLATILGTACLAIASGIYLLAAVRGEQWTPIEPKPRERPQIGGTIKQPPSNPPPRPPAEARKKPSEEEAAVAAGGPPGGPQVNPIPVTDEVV
- Protocol Notes: Cell free membrane based in vitro NOX4 assay: H2O2 production by membranes expressing human NOX4, measured with Amplex Red
- Type: biochemical
- Assay Conditions: 10.0 μM compound, read-out: Percentage inhibition at 10.0 μM
# label = 1 (yes) if inhibition at 10 µM >= 80% else 0 (no)

{"Molecule": "O=c1c(O)c(-c2c(F)cccc2F)[nH]c2c1c(C1CCOCC1)nn2C1CC1 [Example 190]", "Label Class": "1 (yes)"}

Given COc1ccc(-c2[nH]c3c(c(C(F)(F)F)nn3C)c(=O)c2O)c(F)c1 [Example 47] , state whether its inhibition at 10 µM is at least 80%.
1 (yes)

Given Cn1ncc2c(=O)c(O)c(-c3ccc(Cl)cc3Cl)[nH]c21 [Example 5] , state whether its inhibition at 10 µM is at least 80%.
1 (yes)

Given Cc1nn(C(C)C)c2[nH]c(-c3c(F)cccc3F)c(O)c(=O)c12 [Example 74] , state whether its inhibition at 10 µM is at least 80%.
1 (yes)

Given CCc1nn(CC)c2[nH]c(-c3c(F)cccc3F)c(O)c(=O)c12 [Example 103] , state whether its inhibition at 10 µM is at least 80%.
1 (yes)

Given Cc1cc(F)ccc1-n1nc(C)c2c(=O)c(O)c(-c3ccccc3Cl)[nH]c21 [Example 126] , state whether its inhibition at 10 µM is at least 80%.
0 (no)

Given Cc1nc2c(=O)c(O)c(-c3ccccc3Cl)[nH]c2s1 [Example 62] , state whether its inhibition at 10 µM is at least 80%.
1 (yes)

Given CCn1nc(C)c2c(=O)c(O)c(-c3cccc(F)c3F)[nH]c21 [Example 95] , state whether its inhibition at 10 µM is at least 80%.
0 (no)

Given Cc1nn(CCN2CCCCC2)c2[nH]c(-c3ccccc3Cl)c(O)c(=O)c12 [Example 149] , state whether its inhibition at 10 µM is at least 80%.
0 (no)

====

- Tgt: human NOX4 (Homo sapiens, UniProt Q9NPH5)
- Construct: expressed in transfected cells; membrane fraction used
- Protocol Notes: Cell free membrane based in vitro NOX4 assay: H2O2 production by membranes expressing human NOX4, measured with Amplex Red
- Assay type: biochemical
- Assay Conditions: 10.0 μM compound, read-out: Percentage inhibition at 10.0 μM
Some compounds, each annotated with its measured inhibition at 10 µM.
Field: value (include unit after the number)

// solved cases for inhibition at 10 µM follow
{"Test Smiles": "Cc1nn(-c2ccc(F)cc2)c2[nH]c(-c3ccccc3Cl)c(O)c(=O)c12", "Tgt": "human NOX4 (Homo sapiens, UniProt Q9NPH5)", "Data Value": "100%"}
{"Test Smiles": "CCn1nc(C)c2c(=O)c(O)c(-c3c(F)cccc3F)[nH]c21", "Tgt": "human NOX4 (Homo sapiens, UniProt Q9NPH5)", "Data Value": "80.3%"}
{"Test Smiles": "Cn1ncc2c(=O)c(O)c(-c3cccc(Cl)c3)[nH]c21", "Tgt": "human NOX4 (Homo sapiens, UniProt Q9NPH5)", "Data Value": "98.5%"}

What is its inhibition at 10 µM for human NOX4 (Homo sapiens, UniProt Q9NPH5)? Entry: O=c1c(O)c(-c2ccccc2Cl)[nH]c2c1cnn2-c1ccc(F)cc1
100%

What is its inhibition at 10 µM for human NOX4 (Homo sapiens, UniProt Q9NPH5)? Entry: Cc1nn(Cc2ccc(F)cc2)c2[nH]c(-c3c(F)cccc3F)c(O)c(=O)c12
88.6%
